// provenance: ChEMBL document CHEMBL1145100

System: Mus musculus
procedure_text: Biodistribution of radioactivity in normal mice (ICR) muscle after 6 hours of intravenous injection of [125I]-16(IMPY)
Type: ADME, organism-based, Muscle tissue
condition_notes: in vivo
measured_attribute: Dose/organ (%)
Write down the numeric answer in % and omit the unit.

Q. For the compound `CN(C)c1ccc(-c2cn3cc(I)ccc3n2)cc1` , what Dose/organ is on record?
A. 1.46

---

System: Mus musculus
procedure_text: Biodistribution of radioactivity in normal mice (ICR) lung after 30 minutes of intravenous injection of [125I]-16(IMPY)
Assay type: ADME, organism-based
condition_notes: in vivo, 0.5 h
measured_attribute: Dose/organ (%)
Write the answer as a number in %, unit excluded.

Q. Form field: reported Dose/organ of `CN(C)c1ccc(-c2cn3cc(I)ccc3n2)cc1`
A. 0.31

---

System: Mus musculus
procedure_text: Biodistribution of radioactivity in normal mice (ICR) brain after 2 hours of intravenous injection of [125I]-16(IMPY)
Assay type: ADME, organism-based
condition_notes: in vivo
measured_attribute: Dose/organ (%)
Give the quantity in %, number only.

Q. Endpoint output: Dose/organ of `CN(C)c1ccc(-c2cn3cc(I)ccc3n2)cc1` . Value?
A. 0.14

---

Test system: Mus musculus
procedure_text: Biodistribution of radioactivity in normal mice (ICR) lung after 2 minutes of intravenous injection of [125I]-16(IMPY)
Assay type: ADME, organism-based
condition_notes: in vivo
measured_attribute: Dose/organ (%)
Number in %, nothing else.

Q. Hello, I am looking for reported Dose/organ with Mus musculus for `CN(C)c1ccc(-c2cn3cc(I)ccc3n2)cc1` . Could you help?
A. 1.56

---

target_or_system: Amyloid-beta precursor protein (Homo sapiens, UniProt P05067)
Sequence (P05067 whole entry): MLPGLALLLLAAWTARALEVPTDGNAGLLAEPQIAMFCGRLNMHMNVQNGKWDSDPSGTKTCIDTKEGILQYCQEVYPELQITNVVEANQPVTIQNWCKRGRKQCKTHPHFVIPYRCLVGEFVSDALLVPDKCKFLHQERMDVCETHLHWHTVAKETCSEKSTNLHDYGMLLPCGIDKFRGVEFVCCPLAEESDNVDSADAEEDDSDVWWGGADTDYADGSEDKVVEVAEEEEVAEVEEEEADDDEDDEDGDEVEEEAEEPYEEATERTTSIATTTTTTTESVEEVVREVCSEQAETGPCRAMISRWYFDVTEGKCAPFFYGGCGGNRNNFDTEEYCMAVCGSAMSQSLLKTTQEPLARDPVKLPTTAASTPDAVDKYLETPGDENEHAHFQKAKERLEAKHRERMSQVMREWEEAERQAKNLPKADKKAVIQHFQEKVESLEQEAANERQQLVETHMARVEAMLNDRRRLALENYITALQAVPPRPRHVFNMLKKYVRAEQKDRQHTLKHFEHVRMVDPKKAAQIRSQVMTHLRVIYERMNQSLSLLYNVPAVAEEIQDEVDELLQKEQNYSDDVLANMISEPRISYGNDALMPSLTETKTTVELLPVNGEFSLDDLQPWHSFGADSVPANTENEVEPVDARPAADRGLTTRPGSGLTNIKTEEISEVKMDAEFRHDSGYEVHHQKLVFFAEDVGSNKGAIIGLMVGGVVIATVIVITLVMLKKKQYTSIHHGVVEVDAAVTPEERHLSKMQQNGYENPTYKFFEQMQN
procedure_text: Inhibition constant against [125I]-7 (TZDM) binding to Amyloid beta 1-40 aggregates
measured_attribute: Ki (nM)
Write the value in nM as a bare number.

Q. Ki for `CN(C)c1ccc2nc(-c3ccc(Br)cc3)cn2c1` ?
A. 339

Q. Please give the measured Ki for this compound: `Cc1ccc2nc(-c3ccc(N(C)C)cc3)cn2c1`
A. 242

Q. Which measured Ki value corresponds to `CN(C)c1ccc(-c2cn3cc(Br)ccc3n2)cc1` ?
A. 10.3

Q. Any idea what Ki was measured for `Cc1ccc2nc(-c3ccc(Br)cc3)cn2c1` ?
A. 638

---

System: Mus musculus
procedure_text: Biodistribution of radioactivity in normal mice (ICR) lung after 2 hours of intravenous injection of [125I]-16(IMPY)
Format: ADME, organism-based
condition_notes: in vivo
measured_attribute: Dose/organ (%)
Give your result in % as a bare value.

Q. Find the recorded Dose/organ belonging to `CN(C)c1ccc(-c2cn3cc(I)ccc3n2)cc1` and report it.
A. 0.2

---

Tested on: Mus musculus
procedure_text: Biodistribution of radioactivity in normal mice (ICR) muscle after 24 hours of intravenous injection of [125I]-16(IMPY)
Assay type: ADME, organism-based, Muscle tissue
condition_notes: in vivo
measured_attribute: Dose/organ
For clarity, give the value followed by its unit.

Q. Missing value: Dose/organ, Mus musculus, entry `CN(C)c1ccc(-c2cn3cc(I)ccc3n2)cc1` . Fill in?
A. 0.27%

---

System: Mus musculus
procedure_text: Biodistribution of radioactivity in normal mice (ICR) lung after 24 hours of intravenous injection of [125I]-16(IMPY)
Type: ADME, organism-based
condition_notes: in vivo
measured_attribute: Dose/organ

Q. Look up Dose/organ for this compound: `CN(C)c1ccc(-c2cn3cc(I)ccc3n2)cc1`
A. 0.05%
